The reported numbers originate from PubChem BioAssay (NCI).

system: SK-MEL-5 melanoma; assay: NCI tumour cell line growth inhibition, 48 h
Answer each item with its documented TGI.

Worked cases, TGI given:
>>> readout_value("COC(=O)C(Cc1nc2ccc(Cl)cc2[nH]c1=O)/C(=N/O)C(=O)Nc1cccc(Cl)c1C (stereo not drawn)")
"> 100 µM"
>>> readout_value("O=C(O)C1(C(=O)O)CC1")
"> 100 µM"
>>> readout_value("O=CCOCc1cc2c(cc1Br)OCO2")
"36.1 µM"
>>> readout_value("COc1ccc(-c2cnoc2-c2ccc(OC)cc2O)cc1")
"14.2 µM"
>>> readout_value("CCCCC/C=C/C(=O)CCc1ccc(O)c(OC)c1")
"25.1 µM"

For the 8 compounds below, give their TGI values.
1. CCCCSSC(=S)N(CC)CC
2. CCC(C)NC1=C(NC(C)=O)C(=O)c2ccccc2C1=O (stereo not drawn)
3. CCOP(=O)(/C=C/n1ccc(=O)[nH]c1=O)OCC
4. Cc1nnc([S-])o1.[Au+].c1ccc([PH+](c2ccccc2)c2ccccc2)cc1
5. O=C(CSCC(=O)N/N=C/c1cccc(C(F)(F)F)c1)N/N=C/c1cccc(C(F)(F)F)c1
6. O=NN(CCCl)C(=O)NC1CCC(C(=O)O)CC1 (stereo not drawn)
7. CCOC(=O)c1ccc(NC(=O)Nc2nccs2)cc1
8. O=C1C=CC(=O)N1n1c(Cc2ccccc2)n[nH]c1=O

Out:
["> 100 µM", "> 75 µM", "> 100 µM", "2.94 µM", "> 100 µM", "> 100 µM", "0.211 µM", "> 100 µM"]

Below are 5 compounds. Give each one its TGI.
1. CCCCCCCCCCCCC/C=C/[C@H]1[C@@H](C(=O)OC)N1S(=O)c1ccc(C)cc1 (stereo partly drawn)
2. CC(=O)OCC1OC(NC(=S)CCSc2nc3ccccc3c(=O)n2-c2ccccc2)C(OC(C)=O)C(OC(C)=O)C1OC(C)=O (stereo not drawn)
3. CCC#CCCCCCCCCC(F)C(=O)O (stereo not drawn)
4. O=[N+]([O-])c1cc([N+](=O)[O-])c(N2CCCC2)cc1NN=C(c1ccc(O)cc1)c1ccc(O)cc1
5. N#Cc1c(-c2ccccc2)n([O-])c2ccccc2[n+]1=O

Out:
1: > 100 µM; 2: > 100 µM; 3: > 100 µM; 4: 15.3 µM; 5: 38.5 µM

Dear reader, for each entry below, please note its TGI.
1. COC(=O)C(C)(Cc1ccc2c(c1)nnn2C(C)=O)NC(C)=O (stereo not drawn)
2. CCN(CC)c1ncnc2c1ncn2CCNC(CO)(CO)CO
3. Cc1ccc2c(=O)cc(-c3cccc(Cl)c3)[nH]c2n1

Out:
> 100 µM
> 100 µM
4.7 µM

Your task in this section: give TGI for each listed record.
1. Cn1cnc([N+](=O)[O-])c1Sc1nc2ncccc2[nH]1
2. Cc1nn(C(=O)Cc2ccccc2)c2c1C(c1ccc3ccccc3c1O)SC(N)=N2 (stereo not drawn)

Out:
1: > 100 µM; 2: > 100 µM

----------
system: SNB-19 CNS; assay: NCI tumour cell line growth inhibition, 48 h
I'd appreciate it if you could supply GI50 values for the items below.

Solved cases below.
>>> readout_value("CCN(CC)CCn1c(N)c(-c2nc3ccccc3n2C)c2nc(C#N)c(C#N)nc21")
"7.3 µM"
>>> readout_value("CCSc1ccc2c(c1)N(CCCN1CCN(C)CC1)c1ccccc1S2")
"3.16 µM"
>>> readout_value("CCC(/C=C(C)/C=C/C(=O)c1c(O)c(-c2ccc(O)cc2)c[nH]c1=O)CO (centres undefined)")
"11.9 µM"
>>> readout_value("Cc1nn(-c2ccccc2)c(-n2ccnc2)c1/C=N/Nc1nc(-c2ccc(Cl)c(Cl)c2)cs1")
"16.2 µM"
>>> readout_value("C=C1C(=O)O[C@H]2[C@H]1CC/C(COC(=O)NCc1ccc(Cn3c(=O)sn(CCI)c3=O)cc1)=C\\CC[C@@]1(C)O[C@@H]21")
"6.88 µM"
>>> readout_value("COC(=O)c1cc2cc(-c3ccc(OC)cc3)cnc2[nH]1")
"2.27 µM"

Give GI50 for each of the items listed below.
1. O=C(NNC(=O)C1CCN(S(=O)(=O)c2ccc(-c3ccccc3)cc2)CC1)c1ccc(C(F)(F)F)cc1
2. CN1CCN(Cc2ccc(NC(=O)c3nc4ccc5[nH]ncc5c4c4c3CCCC4)cc2C(F)(F)F)CC1
3. COc1ccc(CN2CCc3c(Sc4ccccc4)nc(N)nc3C2=O)c(OC)c1

Out:
1: 15.4 µM; 2: 0.868 µM; 3: 15.4 µM
